These entries and their values trace back to the supplement of paper PMC11246515.

test_summary: total protein half-life in vivo (active degradation + dilution); higher = more stable protein
setup_conditions: E. coli NCM3722 delta-clpP delta-lon delta-hslV; growth: N-lim chemostat; doubling time 6 h
Is total protein half-life in vivo at least 5 h? Then label 1. If not, label 0.

Observe how each entry below is paired with its result.
[
  {
    "polymer_sequence": "MIKRVLVVSMVGLSLVGCVNNDTLSGDVYTASEAKQVQNVSYGTIVNVRPVQIQGGDDSNVIGAIGGAVLGGFLGNTVGGGTGRSLATAAGAVAGGVAGQGVQSAMNKTQGVELEIRKDDGNTIMVVQKQGNTRFSPGQRVVLASNGSQVTVSPR [P0A905]",
    "category": "label 1"
  },
  {
    "polymer_sequence": "MRKQWLGICIAAGMLAACTSDDGQQQTVSVPQPAVCNGPIVEISGADPRFEPLNATANQDYQRDGKSYKIVQDPSRFSQAGLAAIYDAEPGSNLTASGEAFDPTQLTAAHPTLPIPSYARITNLANGRMIVVRINDRGPYGNDRVISLSRAAADRLNTSNNTKVRIDPIIVAQDGSLSGPGMACTTVAKQTYALPAPPDLSGGAGTSSVSGPQGDILPVSNSTLKSEDPTGAPVTSSGFLGAPTTLAPGVLEGSEPTPAPQPVVTAPSTTPATSPAMVTPQAVSQSASGNFMVQVGAVSDQARAQQYQQQLGQKFGVPGRVTQNGAVWRIQLGPFASKAEASTLQQRLQTEAQLQSFITTAQ",
    "category": "label 1"
  },
  {
    "polymer_sequence": "MSLPHCPKCNSEYTYEDNGMYICPECAYEWNDAEPAQESDELIVKDANGNLLADGDSVTIIKDLKVKGSSSMLKIGTKVKNIRLVEGDHNIDCKIDGFGPMKLKSEFVKKN [P0AFJ1]",
    "category": "label 1"
  },
  {
    "polymer_sequence": "MPSFDIVSEVDLQEARNAVDNASREVESRFDFRNVEASFELNDASKTIKVLSESDFQVNQLLDILRAKLLKRGIEGSSLDVPENIVHSGKTWFVEAKLKQGIESATQKKIVKMIKDSKLKVQAQIQGDEIRVTGKSRDDLQAVMAMVRGGDLGQPFQFKNFRD [P0A8E7]",
    "category": "label 1"
  },
  {
    "polymer_sequence": "MSFFISDAVAATGAPAQGSPMSLILMLVVFGLIFYFMILRPQQKRTKEHKKLMDSIAKGDEVLTNGGLVGRVTKVAENGYIAIALNDTTEVVIKRDFVAAVLPKGTMKAL [P0ADZ7]",
    "category": "label 1"
  },
  {
    "polymer_sequence": "MSNLTYLQGYPEQLLSQVRTLINEQRLGDVLAKRYPGTHDYATDKALWQYTQDLKNQFLRNAPPINKVMYDNKIHVLKNALGLHTAVSRVQGGKLKAKVEIRVATVFRNAPEPFLRMIVVHELAHLKEKEHNKAFYQLCCHMEPQYHQLEFDTRLWLTQLSLGQNKI",
    "category": "label 1"
  },
  {
    "polymer_sequence": "MAAINTKVKKAVIPVAGLGTRMLPATKAIPKEMLPLVDKPLIQYVVNECIAAGITEIVLVTHSSKNSIENHFDTSFELEAMLEKRVKRQLLDEVQSICPPHVTIMQVRQGLAKGLGHAVLCAHPVVGDEPVAVILPDVILDEYESDLSQDNLAEMIRRFDETGHSQIMVEPVADVTAYGVVDCKGVELAPGESVPMVGVVEKPKADVAPSNLAIVGRYVLSADIWPLLAKTPPGAGDEIQLTDAIDMLIEKETVEAYHMKGKSHDCGNKLGYMQAFVEYGIRHNTLGTEFKAWLEEEMGIKK [P0AEP3]",
    "category": "label 0"
  },
  {
    "polymer_sequence": "MSWQEKINAALDARRAADALRRRYPVAQGAGRWLVADDRQYLNFSSNDYLGLSHHPQIIRAWQQGAEQFGIGSGGSGHVSGYSVVHQALEEELAEWLGYSRALLFISGFAANQAVIAAMMAKEDRIAADRLSHASLLEAASLSPSQLRRFAHNDVTHLARLLASPCPGQQMVVTEGVFSMDGDSAPLAEIQQVTQQHNGWLMVDDAHGTGVIGEQGRGSCWLQKVKPELLVVTFGKGFGVSGAAVLCSSTVADYLLQFARHLIYSTSMPPAQAQALRASLAVIRSDEGDARREKLAALITRFRAGVQDLPFTLADSCSAIQPLIVGDNSRALQLAEKLRQQGCWVTAIRPPTVPAGTARLRLTLTAAHEMQDIDRLLEVLHGNG",
    "category": "label 0"
  }
]

Req: Hi team, for MSYPLFDKDEHWHKPEQAFLTDDHRTILRFAVEALMSGKGAVLVTLVEIRGGAARPLGAQMVVREDGRYCGFVSGGCVEAAAAFEALEMMGSGRDREIRYGEGSPWFDIVLPCGGGITLTLHKLRSAQPLLAVLNRLEQRKPVGLRYDPQAQSLVCLPTQTRTGWNLNGFEVGFRPCVRLMIYGRSLEAQATASLAAATGYDSHIFDLFPASASAQIDTDTAVILLCHDLNRELPVLQAAREAKPFYLGALGSYRTHTLRLQKLHELGWSREETTQIRAPVGIFPKARDAHTLALSVLAEVASVRLHQEEDSCLPPSS , is the recorded total protein half-life in vivo at or above 5 h?
Resp: label 1

Req: Hi team, for MNALTAVQNNAVDSGQDYSGFTLTPSAQSPRLLELTFTEQTTKQFLEQVAEWPVQALEYKSFLRFRVAKILDDLCANQLQPLLLKTLLNRAEGALLINAVGVDDVKQADEMVKLATAVAHLIGRSNFDAMSGQYYARFVVKNVDNSDSYLRQPHRVMELHNDGTYVEEITDYVLMMKIDEQNMQGGNSLLLHLDDWEHLDNYFRHPLARRPMRFAAPPSKNVSKDVFHPVFDVDQQGRPVMRYIDQFVQPKDFEEGVWLSELSDAIETSKGILSVPVPVGKFLLINNLFWLHGRDRFTPHPDLRRELMRQRGYFAYASNHYQTHQ , is the recorded total protein half-life in vivo at or above 5 h?
Resp: label 1

Req: Hi team, for MSDDVALPLEFTDAAANKVKSLIADEDNPNLKLRVYITGGGCSGFQYGFTFDDQVNEGDMTIEKQGVGLVVDPMSLQYLVGGSVDYTEGLEGSRFIVTNPNAKSTCGCGSSFSI [P0ACC3] , is the recorded total protein half-life in vivo at or above 5 h?
Resp: label 1
